Entry source: ChEMBL document CHEMBL4402611

TARGET OR SYSTEM: Carbonic anhydrase 2 (Homo sapiens, UniProt P00918)
ASSAY EXPLANATION: Inhibition of human recombinant carbonic anhydrase 2 preincubated with enzyme for 1 hr prior to testing by phenol red-based stopped-flow CO2 hydration assay
With a cut-off of 30 nM, any Ki strictly below it is called MET; any Ki meeting it or above is called NOT MET.

Illustrative cases are given below, each with its answer.
Is 30 nM strictly greater than the molecule's reported Ki? molecule: CCN(CC)P(=O)(Oc1ccc(S(N)(=O)=O)cc1)c1ccccc1 (racemic)
MET

For NS(=O)(=O)c1ccc(OP(=O)(Oc2ccccc2)c2ccccc2)cc1 (racemic) , is the recorded Ki below the cut-off of 30 nM?
MET

Threshold test, Ki < 30 nM: NS(=O)(=O)c1ccc(OP(=O)(NCc2ccccc2)c2ccccc2)cc1 (racemic)
NOT MET

Item C#CCOP(=O)(Oc1ccc(S(N)(=O)=O)cc1)c1ccccc1 (racemic) : Ki beneath 30 nM, strictly?
MET

Record CCCCCCCCCCCCSP(=O)(Oc1ccc(S(N)(=O)=O)cc1)c1ccccc1 (racemic) : is its Ki strictly below 30 nM?
NOT MET

Take the molecule C#CCO[P@@](=O)(Oc1ccc(S(N)(=O)=O)cc1)c1ccccc1 and say whether its Ki is less than 30 nM.
NOT MET

Hi there! Is Ki for NS(=O)(=O)c1ccc(OP(=O)(c2ccccc2)N2CCOCC2)cc1 (racemic) below 30 nM, do you know?
MET

Confirm or reject: Ki of COCCOP(=O)(Oc1ccc(S(N)(=O)=O)cc1)c1ccccc1 (racemic) lies strictly below 30 nM
MET

Turning now to a further record.
Given the entry CCCNP(=O)(Oc1ccc(S(N)(=O)=O)cc1)c1ccccc1 (racemic) , would its reported Ki be below 30 nM?
MET

###

Catalogue of log10 Ki values
TARGET OR SYSTEM: Carbonic anhydrase 2 (Homo sapiens, UniProt P00918)
ASSAY EXPLANATION: Inhibition of human recombinant carbonic anhydrase 2 preincubated with enzyme for 1 hr prior to testing by phenol red-based stopped-flow CO2 hydration assay
// stored as log10 of Ki expressed in nM

Determine its reported log10 Ki: NS(=O)(=O)c1ccc(OP(=O)(c2ccccc2)N2CCCC2)cc1 (racemic)
0.23

Next:
Quote log10 Ki reported for CCOP(=O)(Oc1ccc(S(N)(=O)=O)cc1)c1ccccc1 (racemic) please.
1.56

Look up and report measured log10 Ki for this entry: C#CCO[P@](=O)(Oc1ccc(S(N)(=O)=O)cc1)c1ccccc1
-0.11

For the molecule CN1CCN(P(=O)(Oc2ccc(S(N)(=O)=O)cc2)c2ccccc2)CC1 (racemic) , give its measured log10 Ki value.
0.96

Fill in log10 Ki for record NP(=O)(Oc1ccc(S(N)(=O)=O)cc1)c1ccccc1 (racemic)
1.25

###

TARGET OR SYSTEM: Carbonic anhydrase 7 (Homo sapiens)
Sequence (P43166 whole entry): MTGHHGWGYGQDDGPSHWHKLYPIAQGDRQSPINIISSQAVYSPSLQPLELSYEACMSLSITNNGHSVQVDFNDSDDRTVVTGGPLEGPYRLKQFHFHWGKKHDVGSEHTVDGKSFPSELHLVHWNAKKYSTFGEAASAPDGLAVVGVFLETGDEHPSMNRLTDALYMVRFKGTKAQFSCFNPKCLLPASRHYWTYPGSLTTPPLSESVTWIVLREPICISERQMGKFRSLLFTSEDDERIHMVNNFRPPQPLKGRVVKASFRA
ASSAY EXPLANATION: Inhibition of human recombinant carbonic anhydrase 7 preincubated with enzyme for 1 hr prior to testing by phenol red-based stopped-flow CO2 hydration assay
MEASUREMENT TYPE: Ki
Your reply should be a number followed by the unit it is expressed in.

Worked set:
Specify Ki for C#CCO[P@](=O)(Oc1ccc(S(N)(=O)=O)cc1)c1ccccc1 and stop.
1.1 nM

Specify measured Ki for NS(=O)(=O)c1ccc(OP(=O)(Oc2ccccc2)c2ccccc2)cc1 (racemic) .
31.4 nM

Give the reported value of Ki for this record: CCCCCCCCCCCCSP(=O)(Oc1ccc(S(N)(=O)=O)cc1)c1ccccc1 (racemic)
101 nM

Identify measured Ki associated with CCN(CC)P(=O)(Oc1ccc(S(N)(=O)=O)cc1)c1ccccc1 (racemic)
13.5 nM

Specify Ki for NP(=O)(Oc1ccc(S(N)(=O)=O)cc1)c1ccccc1 (racemic) and stop.
18.9 nM

Continuing:
Tell us which Ki value is on record for CCSP(=O)(Oc1ccc(S(N)(=O)=O)cc1)c1ccccc1 (racemic)
41.5 nM

Determine from records and report Ki for C#CCO[P@@](=O)(Oc1ccc(S(N)(=O)=O)cc1)c1ccccc1
71.3 nM

Specify Ki for CN1CCN(P(=O)(Oc2ccc(S(N)(=O)=O)cc2)c2ccccc2)CC1 (racemic) and stop.
17 nM

Specify measured Ki for NS(=O)(=O)c1ccc(OP(=O)(Sc2ccccc2)c2ccccc2)cc1 (racemic) .
15.7 nM

Could you please provide reported Ki for CCOP(=O)(Oc1ccc(S(N)(=O)=O)cc1)c1ccccc1 (racemic) ? Thanks!
38.2 nM

Return reported Ki. Input compound: NS(=O)(=O)c1ccc(OP(=O)(Nc2ccccc2)c2ccccc2)cc1 (racemic)
5.5 nM

Give a short answer stating reported Ki for NS(=O)(=O)c1ccc(OP(=O)(c2ccccc2)N2CCOCC2)cc1 (racemic) .
30.5 nM
